Reported collision cross section in nitrogen values for a set of compounds
assay: collision cross section in nitrogen (drift tube, single-field); higher = larger gas-phase ion size; conditions: ion type: [M-H]; ion source: ESI; ion mode: Negative;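 further: chemical standards at 10 µM analysed by drift tube IMS-QTOF MS in about 3.95 torr nitrogen, mean of duplicate injections differing ≤1%, mass error below 10 ppm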
metric: collision cross section in nitrogen (Å²)

compound	metric	numericResult
Nc1ccc([As](=O)(O)O)cc1	collision cross section in nitrogen	139
CC[C@H](c1ccc(O)cc1)[C@@H](CC)c1ccc(O)cc1	collision cross section in nitrogen	177.2
CCCCCCCCCCO[C@@H]1O[C@H](CO)[C@@H](O)[C@H](O)[C@H]1O [Decyl beta-D-glucopyranoside]	collision cross section in nitrogen	192.6
O=C(c1ccc(O)cc1)c1ccc(O)cc1O [2,4,4'-Trihydroxybenzophenone]	collision cross section in nitrogen	152.8
CNC(=C[N+](=O)[O-])NCCSCc1ccc(CN(C)C)o1	collision cross section in nitrogen	179.5
CC(=O)CC(=O)Nc1ccc(Cl)cc1 [4'-Chloroacetoacetanilide]	collision cross section in nitrogen	143.8
O[Si](c1ccccc1)(c1ccccc1)c1ccccc1	collision cross section in nitrogen	171
CC(=O)c1ccc(O)cc1Br [1-(2-Bromo-4-hydroxyphenyl)ethanone]	collision cross section in nitrogen	130.1
O=C(c1ccccc1)c1ccc(O)cc1O [2,4-Dihydroxybenzophenone]	collision cross section in nitrogen	148.3
CCOP(=S)(NC(C)C)Oc1ccccc1C(=O)OC(C)C (configuration not stated)	collision cross section in nitrogen	173.7
NC(N)=Nc1nc(CSCCC(N)=NS(N)(=O)=O)cs1	collision cross section in nitrogen	169.4
CCc1cc(Cc2cc(CC)cc(C(C)(C)C)c2O)c(O)c(C(C)(C)C)c1 [2,2'-Methylenebis(ethyl-6-tert-butylphenol)]	collision cross section in nitrogen	203.6
O=C(Nc1cccc(C(F)(F)F)c1)c1cc(Br)cc(Br)c1O	collision cross section in nitrogen	175.5
CCOC(=O)COc1ccc2c(c1)CC(NCC(O)c1cccc(Cl)c1)CC2 (configuration not stated)	collision cross section in nitrogen	194.5
O=C(NC(=O)c1c(F)cccc1F)Nc1ccc(OC(F)(F)C(F)OC(F)(F)F)c(Cl)c1 (configuration not stated)	collision cross section in nitrogen	204.4
CCOc1nc(NC)nc(NC(=O)NS(=O)(=O)c2ccccc2C(=O)OC)n1	collision cross section in nitrogen	196
O=C(NC(=O)c1cc(F)c(F)cc1Cl)Nc1cc(F)ccc1N1CCC(C(=O)O)CC1	collision cross section in nitrogen	196.2

====

assay: collision cross section in nitrogen (drift tube, single-field); higher = larger gas-phase ion size; details: ion type: [M+]; ion source: APCI; ion mode: Positive
Counter-ions that a name gives are not always drawn.
Please mark class 1 if the recorded collision cross section in nitrogen is equal to or greater than 200 Å², and class 0 if it falls below.

molecule	assignedCategory
CC(C)(C)c1cc(CCC(=O)OCC(COC(=O)CCc2cc(C(C)(C)C)c(O)c(C(C)(C)C)c2)(COC(=O)CCc2cc(C(C)(C)C)c(O)c(C(C)(C)C)c2)COC(=O)CCc2cc(C(C)(C)C)c(O)c(C(C)(C)C)c2)cc(C(C)(C)C)c1O	class 1
Cc1cccc(Nc2ccccc2C(=O)O)c1C	class 0
Nc1cc(Cl)c(N)c(Cl)c1	class 0
N=C1C=CC(=C(c2ccc(N)cc2)c2ccc(N)cc2)C=C1 [C.I. Basic Red 9 monohydrochloride]	class 0
CC(C)(c1ccccc1)c1ccc(Nc2ccc(C(C)(C)c3ccccc3)cc2)cc1	class 1
CC(C)Nc1ccc(NC(C)C)c2c1C(=O)c1ccccc1C2=O	class 0
Nc1cc(Cl)c(-c2cc(Cl)c(N)cc2Cl)cc1Cl	class 0

====

Reported collision cross section in nitrogen values for a set of compounds
assay: collision cross section in nitrogen (drift tube, single-field); higher = larger gas-phase ion size; conditions: ion type: [M-H]; ion source: ESI; ion mode: Negative

compound	collision cross section in nitrogen, Å²
O=c1c(O)c(-c2ccc(O)cc2O)oc2cc(O)cc(O)c12 [Morin hydrate]	164.1
O=C1c2ccccc2C(=O)C1c1nc2ccccc2c(Br)c1O [C.I. Disperse Yellow 64]	171.5
O=C(O)c1cc(=O)c2c(OCC(O)COc3cccc4oc(C(=O)O)cc(=O)c34)cccc2o1 [Cromolyn sodium]	186
C=CC1(C)OC(=O)N(c2cc(Cl)cc(Cl)c2)C1=O (stereo not given) [Vinclozolin]	154.4
Cc1ccc(S(=O)(=O)NC(=O)NN2CCCCCC2)cc1 [Tolazamide]	178.1

====

Reported collision cross section in nitrogen values for a set of compounds
assay: collision cross section in nitrogen (drift tube, single-field); higher = larger gas-phase ion size; details: ion type: [M+H]; ion source: APCI; ion mode: Positive
Structures can show the parent of a compound that is named as a salt.

compound	unitAbbreviation	collision cross section in nitrogen
O=C1Cc2ccccc2N1c1c(Cl)cccc1Cl	Å²	153.5
CN1C(=O)N(c2ccccc2Br)Cc2cnc(Nc3ccc4c(c3)OCC(CO)O4)nc21 (configuration not stated)	Å²	219.5
CSC1=N[C@@](C)(c2ccccc2)C(=O)N1Nc1ccccc1	Å²	172.6
O=C(/C=C/C=C/c1ccc2c(c1)OCO2)N1CCCCC1	Å²	176
ClC(c1ccccc1)(c1ccccc1)c1ccccc1 [Trityl chloride]	Å²	162.5
CC1=Nc2ccc3ccccc3c2C1(C)C [1,1,2-Trimethyl-1H-benzo[e]indole]	Å²	145.8
CCCCCCc1ccc(N)cc1	Å²	162.8
CC(=O)Nc1ccc2c(c1)Cc1cc(NC(C)=O)ccc1-2	Å²	176.3
CCCOc1ccc(S(=O)(=O)N2CCN(CC)CC2)cc1-c1nc2c(CC)n(Cc3ccccn3)nc2c(=O)[nH]1	Å²	237
COc1cc(C(C)C)c2c(c1)S(=O)(=O)N(COc1cc(=O)n3cccc(OCCN4CCCCC4)c3n1)C2=O	Å²	228
CN(C)C(=O)Nc1ccc(Oc2ccc(Cl)cc2)cc1	Å²	175.3
C#CC(C)(C)NC(=O)c1cc(Cl)cc(Cl)c1 [Propyzamide]	Å²	157.9
CC(=O)CC(c1ccccc1)c1c(O)c2ccccc2oc1=O (configuration not stated) [Sodium warfarin]	Å²	167.1
Cc1cc(Cl)ccc1N=CN(C)C [Chlordimeform hydrochloride]	Å²	146.2
COCc1cnc(C2=NC(C)(C(C)C)C(=O)N2)c(C(=O)O)c1 (configuration not stated)	Å²	172.2
COc1cc2c(c(OC)c1OC)-c1ccc(OC)c(=O)cc1[C@@H](NC(C)=O)CC2	Å²	197
CC(=O)OCC(=O)[C@@]12N=C(C)O[C@@H]1C[C@H]1[C@@H]3CCC4=CC(=O)C=C[C@]4(C)[C@H]3[C@@H](O)C[C@@]12C	Å²	205.2

====

Reported collision cross section in nitrogen values for a set of molecules
assay: collision cross section in nitrogen (drift tube, single-field); higher = larger gas-phase ion size; details: ion type: [M-H]; ion source: ESI; ion mode: Negative
Counter-ions that a name gives are not always drawn.

molecule	collision cross section in nitrogen (Å²)
Nc1ccc(S(=O)(=O)Nc2nccs2)cc1 [Sulfathiazole sodium]	154.1
CCCCCCCCCCCC(=O)OC [Methyl dodecanoate]	158.5
CCC(CC)Nc1c([N+](=O)[O-])cc(C)c(C)c1[N+](=O)[O-]	163.7
CCCCCCCCCCCC(=O)N(C)CC(=O)O	170.1
CCCCC(CC)COC(=O)c1ccccc1C(=O)O (stereo not drawn) [Mono(2-ethylhexyl) phthalate]	169.2
Cc1cc2c3c(c1)C(c1ccccc1)=N[C@@H](NC(=O)c1ccncc1)C(=O)N3CC2	195
O=C(O)c1cccc([N+](=O)[O-])c1	131.2
O=C(NCc1cccnc1)Nc1ccc([N+](=O)[O-])cc1	165.3
CN(c1nccc(=O)[nH]1)C1CCN(c2nc3ccccc3n2Cc2ccc(F)cc2)CC1	204.5
O=C(O)c1cccc(C(F)(F)F)c1	132.4
CCCCc1c(C)nc(NCC)nc1OS(=O)(=O)N(C)C [Bupirimate]	175.9
O=c1[nH]cc(F)c(=O)[nH]1	115.4
COP(=S)(NC(C)C)Oc1ccc(C)cc1[N+](=O)[O-] (stereo not drawn)	164.8
COc1cc(OC)nc(Oc2cccc(Oc3nc(OC)cc(OC)n3)c2C(=O)O)n1 [Bispyribac-sodium]	187.4
O=[N+]([O-])c1ccc2c(c1)Cc1ccccc1-2	141.1
O=C(O)COCCN1CCN(C(c2ccccc2)c2ccc(Cl)cc2)CC1 (stereo not drawn) [Cetirizine hydrochloride (1:2)]	195
CC(C)(C)CC(C)(C)c1ccc(O)c(-n2nc3ccccc3n2)c1	190
CCOC(=O)C(C)OC(=O)c1cc(Oc2ccc(C(F)(F)F)cc2Cl)ccc1[N+](=O)[O-] (stereo not drawn)	196

====

assay: collision cross section in nitrogen (drift tube, single-field); higher = larger gas-phase ion size; settings: ion type: [M+H]; ion source: APCI; ion mode: Positive
metric: collision cross section in nitrogen (Å²)

compound	metric	numericResult
COP(=O)(OC)O/C(C)=C/C(=O)N(C)C [Dicrotophos]	collision cross section in nitrogen	150.2
CCCCN(CCC(=O)OCC)C(C)=O [Ethyl 3-(N-butylacetamido)propionate]	collision cross section in nitrogen	149.3
O=c1cc(-c2ccccc2)oc2ccccc12 [Flavone]	collision cross section in nitrogen	146.6
N=C(N)c1ccc(OCCCCCOc2ccc(C(=N)N)cc2)cc1 [Pentamidine]	collision cross section in nitrogen	176.9
CCCCCCCC/C=C\CCCCCCCC(=O)N(C)CC(=O)O [Oleyl sarcosine]	collision cross section in nitrogen	200.7
NC(=O)Cn1c(=O)cc(CCN2CCN(c3nccc4sccc34)CC2)c2ccc(F)cc21 [Trelanserin]	collision cross section in nitrogen	200.1
Cc1cc(C)nc(N)n1 [2-Amino-4,6-dimethylpyrimidine]	collision cross section in nitrogen	123.7
COc1ccccc1NC(=O)c1cc2ccccc2cc1O [3-Hydroxy-2-naphthoic o-anisidide]	collision cross section in nitrogen	167.3
N=c1ccn2c(n1)O[C@H]1[C@H](O)[C@@H](CO)O[C@H]12 [Cyclocytidine]	collision cross section in nitrogen	143.1
NCCCOCCOCCOCCCN [3,3'-[Oxybis(ethane-2,1-diyloxy)]dipropan-1-amine]	collision cross section in nitrogen	147.9
O=C1CCCN1C1CCCCC1 [1-Cyclohexylpyrrolidin-2-one]	collision cross section in nitrogen	139.2
COc1ccc(-c2coc3cc(O)cc(O)c3c2=O)cc1 [Biochanin A]	collision cross section in nitrogen	164.6
c1ccc(Nc2ccc3ccccc3c2)cc1 [N-Phenyl-2-naphthylamine]	collision cross section in nitrogen	150
CCOP(=O)(N=C1SCCS1)OCC [Phosfolan]	collision cross section in nitrogen	150.2
COc1cccc([C@@]2(O)CCCC[C@@H]2CN(C)C)c1 [Tramadol]	collision cross section in nitrogen	160.6
O=C(Nc1ccccc1SSc1ccccc1NC(=O)c1ccccc1)c1ccccc1 [2,2'-Dibenzoylaminodiphenyl disulfide]	collision cross section in nitrogen	194.6
COP(=O)(OC)SCn1c(=O)oc2cc(Cl)cnc21 [Azamethiphos]	collision cross section in nitrogen	160.6
CCS(=O)(=O)CCSP(=O)(OC)OC [Demeton-S-methyl sulfone]	collision cross section in nitrogen	144.5
